meta.source: ChEMBL document CHEMBL5625192

- test system: Protein cereblon/Tyrosine-protein kinase BTK (Homo sapiens, UniProt Q06187+Q96SW2)
- Sequence (Q06187 2-659 limits assumed): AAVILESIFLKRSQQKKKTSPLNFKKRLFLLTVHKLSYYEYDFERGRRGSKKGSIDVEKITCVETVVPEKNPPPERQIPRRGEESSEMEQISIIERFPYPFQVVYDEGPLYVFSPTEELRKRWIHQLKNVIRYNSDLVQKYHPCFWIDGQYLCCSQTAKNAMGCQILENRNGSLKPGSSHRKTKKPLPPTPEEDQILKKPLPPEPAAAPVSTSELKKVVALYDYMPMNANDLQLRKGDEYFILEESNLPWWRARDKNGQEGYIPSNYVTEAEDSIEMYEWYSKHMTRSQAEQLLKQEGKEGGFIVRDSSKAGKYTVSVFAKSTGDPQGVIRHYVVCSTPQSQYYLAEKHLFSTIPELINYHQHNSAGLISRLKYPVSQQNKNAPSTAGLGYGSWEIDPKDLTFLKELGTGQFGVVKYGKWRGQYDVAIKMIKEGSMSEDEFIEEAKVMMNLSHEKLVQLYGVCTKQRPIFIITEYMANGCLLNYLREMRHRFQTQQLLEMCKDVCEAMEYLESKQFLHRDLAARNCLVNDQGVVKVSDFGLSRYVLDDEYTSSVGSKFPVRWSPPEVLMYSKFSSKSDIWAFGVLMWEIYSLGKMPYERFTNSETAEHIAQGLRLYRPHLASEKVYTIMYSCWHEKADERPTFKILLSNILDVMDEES
- Sequence (Q96SW2 whole entry partner): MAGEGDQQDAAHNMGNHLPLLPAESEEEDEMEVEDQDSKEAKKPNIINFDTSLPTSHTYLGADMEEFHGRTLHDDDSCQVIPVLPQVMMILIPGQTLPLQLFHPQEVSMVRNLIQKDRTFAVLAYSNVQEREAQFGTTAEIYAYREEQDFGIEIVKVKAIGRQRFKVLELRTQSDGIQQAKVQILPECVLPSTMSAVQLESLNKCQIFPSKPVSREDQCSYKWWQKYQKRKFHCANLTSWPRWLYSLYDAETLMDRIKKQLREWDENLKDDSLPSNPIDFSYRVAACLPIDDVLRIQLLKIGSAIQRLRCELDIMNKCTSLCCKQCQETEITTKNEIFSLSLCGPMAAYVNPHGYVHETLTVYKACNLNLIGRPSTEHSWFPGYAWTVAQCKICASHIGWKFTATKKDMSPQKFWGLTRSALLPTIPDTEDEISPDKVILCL
- experiment description: PROTAC activity at CRBN/BTK in human Ramos cells assessed as induction of BTK degradation at 100 nM incubated for 24 hrs by Western blot analysis relative to control
- Type: cell-based
readout: Activity (%)

INSERT INTO results (molecule, units_text, measured) VALUES
  ('Nc1ncnc2c1c(-c1ccc(Oc3ccccc3)cc1)nn2C1CCN(C(=O)CN2CCN(CC#Cc3ccc4c(c3)C(=O)N(C3CCC(=O)NC3=O)C4=O)CC2)CC1 (stereo not drawn)', '%', 39.5);

[1] Nc1ncnc2c1c(-c1ccc(Oc3ccccc3)cc1)nn2C1CCN(C(=O)CCCN2CCN(CCOCCOCC(=O)Nc3ccc4c(c3)C(=O)N(C3CCC(=O)NC3=O)C4=O)CC2)CC1 (stereo not drawn)
[2] Nc1ncnc2c1c(-c1ccc(Oc3ccccc3)cc1)nn2C1CCN(C(=O)CN2CCN(CC3CCN(c4cccc5c4C(=O)N(C4CCC(=O)NC4=O)C5=O)CC3)CC2)CC1 (stereo not drawn)
Problem: In terms of reported Activity, does 1 or 2 have the smaller number? Select an item and report its label.
Result: 1
(1: 55%, 2: 91%)
